- TARGET_SYSTEM: full-length human PKCι (Homo sapiens, UniProt P41743)
- Construct: Recombinant, full-length human PKCι expressed in Sf21 insect cells is also commercially available
- Sequence (P41743 whole entry): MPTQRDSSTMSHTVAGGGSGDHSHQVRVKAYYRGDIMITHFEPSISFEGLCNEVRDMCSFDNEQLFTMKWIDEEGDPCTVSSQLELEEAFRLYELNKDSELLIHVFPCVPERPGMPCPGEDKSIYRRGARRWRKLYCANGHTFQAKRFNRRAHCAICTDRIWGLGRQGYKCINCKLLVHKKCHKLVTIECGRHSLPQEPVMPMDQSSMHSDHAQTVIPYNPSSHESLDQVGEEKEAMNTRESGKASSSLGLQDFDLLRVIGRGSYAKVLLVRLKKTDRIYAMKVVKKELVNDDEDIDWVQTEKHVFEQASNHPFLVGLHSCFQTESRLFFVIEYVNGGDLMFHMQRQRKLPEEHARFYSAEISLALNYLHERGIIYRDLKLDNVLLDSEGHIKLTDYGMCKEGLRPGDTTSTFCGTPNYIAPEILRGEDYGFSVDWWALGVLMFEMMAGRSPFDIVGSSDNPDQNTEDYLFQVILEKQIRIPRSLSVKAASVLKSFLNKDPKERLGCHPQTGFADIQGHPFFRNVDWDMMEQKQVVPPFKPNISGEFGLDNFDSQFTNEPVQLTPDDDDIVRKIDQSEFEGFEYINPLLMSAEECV
- EXPERIMENT_DESCRIPTION: PKCι IC50 IMAP fluorescence polarisation assay, full-length enzyme, 150 μM ATP
- EXPERIMENTAL_CONTEXT: read-out: IC50 in IMAP assay against full length PKCi at 150 μM ATP
pIC50: −log10 of the molar value.
PROPERTY_LABEL: pIC50

Entry "CC1(C)CNCC[C@@H]1Nc1nc(-c2ccnc(Nc3ncc(C#N)cc3F)c2)nc2cncc(C3CCC3)c12" — recorded pIC50 = > 7.00

Entry "Fc1ccc(F)c(Nc2cc(-c3nc(N[C@H]4[C@@H]5CNC[C@@H]54)c4c(C5CCC5)cncc4n3)ccn2)n1" — recorded pIC50 = > 7.00

Entry CC1(C)CNCCC1Nc1nc(-c2ccnc(Nc3cccnc3F)c2)nc2cncc(C3CCC3)c12 (stereo not shown) — recorded pIC50 = > 7.00

Entry CN(c1nc(-c2ccnc3[nH]c4ccccc4c23)nc2cncc(C3CCC3)c12)C1CCCNCC1 (stereo not shown) — recorded pIC50 = > 7.00

Entry Cc1cc2c(-c3nc(N4CCCC5NCCCC54)c4c(C5CC5)cncc4n3)ccnc2[nH]1 (stereo not shown) — recorded pIC50 = > 7.00

Entry "CC1(C)CNCC[C@@H]1Nc1nc(-c2ccnc(Nc3ncc(Cl)cc3F)c2)nc2cncc(C3CCC3)c12" — recorded pIC50 = > 7.00

Entry C[C@H]1C[C@@H](Nc2nc(-c3ccnc(Nc4nc(F)ccc4F)c3)nc3cncc(C4CC4)c23)CCN1 (racemic) — recorded pIC50 = > 7.00

Entry O[C@@H]1CNCC[C@H]1Nc1nc(-c2ccnc(Nc3nc(F)cc(F)c3F)c2)nc2cncc(C3CCC3)c12 (racemic) — recorded pIC50 = > 7.00

Entry Fc1cccnc1-c1cc2c(-c3nc(N4CC[C@H]5NCC[C@H]54)c4c(C5CC5)cncc4n3)ccnc2[nH]1 (racemic) — recorded pIC50 = > 7.00

Entry "Fc1cc(F)c(Nc2cc(-c3nc(N[C@H]4[C@@H]5CNC[C@@H]54)c4c(C5CCC5)cncc4n3)ccn2)nc1F" — recorded pIC50 = > 7.00

Entry "CC1(C)CNCC[C@@H]1Nc1nc(-c2ccnc(Nc3nc4ccccc4o3)c2)nc2cncc(C3CC3)c12" — recorded pIC50 = > 7.00

Entry O[C@]12CCN(c3nc(-c4ccnc(Nc5nc6ccccn6n5)c4)nc4cncc(C5CC5)c34)[C@H]1CCNC2 (racemic) — recorded pIC50 = > 7.00

Entry Fc1cccnc1-c1cc2c(-c3nc(N4CC[C@H]5NCC[C@H]54)c4c(C5CCC5)cncc4n3)ccnc2[nH]1 (racemic) — recorded pIC50 = > 7.00

Entry O[C@H]1CNCC[C@H]1Nc1nc(-c2ccnc3[nH]c4ccccc4c23)nc2cncc(C(F)(F)F)c12 (racemic) — recorded pIC50 = 6.00 to 7.00

Entry "c1ccc(Nc2cc(-c3nc(N[C@H]4[C@@H]5CNC[C@@H]54)c4c(C5CCC5)cncc4n3)ccn2)cc1" — recorded pIC50 = > 7.00

Entry O[C@H]1CNCC[C@H]1Nc1nc(-c2ccnc(Nc3ncc(F)cc3F)c2)nc2cncc(C3CC3)c12 (racemic) — recorded pIC50 = 6.00 to 7.00
